- Assay Comment: yeast display, Sf9 membrane polyspecificity reagent, FACS + sequencing; frameworks hold sequencing errors
Reported Property: polyreactivity (PSR sort gate)

// solved cases for polyreactivity (PSR sort gate) follow
QVQLVESGGGLVQAGGSLRLSCAASGRTFKAYAMGWYRQAPGKEREFVAAITKRGGSTYYADSVKGRFTISRDNAKNTVYLQMNSLKPEDTAVYYCAVGLGRYTHTSVPIPSYDYWGQGTQVTVSS
high polyreactivity
QVQLVESGGRLVQAGGSLRLSCAASGSTFGRYVMGWYRQTPGKERELVAAISYSGGRTYYADSVKLRFTISRDNAKNTVYLQMNSLNPEDTAVFYCATRVTLTRWLYDYWGQGSQVTVSS
high polyreactivity
QVQLVESGGGLGQAGGSLRLSCAASGFIFGSYAMGWYRQAPGKARELVAAISWSGASTYYADSVKGRFTISRDNAKKTVYLQMNSLIPEDTAVYYCAAVSRYGWYDYWGQGTQVTVSS
high polyreactivity
QVQLVESGGGLVQAGGSLRLSCAASGRNFTDNDMGWYIQAPGKEMDLVAGINWSSGSTYYADSVKGRFTISRDNAKNTVYLQMNSLKTEDTAVYYCNALGYWRSTVHFVVGEVDYWGQGTQVTLSS
low polyreactivity

Problem: Any idea what its polyreactivity (PSR sort gate) is? The sequence is QVQLVESGGGLVQAGGSLRLSCAASGRILSSYAMGWYRKAPGKERELVAVISSGGNTYYADSVKGRFTISRDNAKNTVYLQMNSLKPEDTAVYYCAAVRHRQTYTKYNYWGQGTKVTVSS
Solution: high polyreactivity

Problem: Thanks! And QVQLVESGGGLVQAGGSVRLSCGASGRSFQRYALGWYRQAPGTERELVAAIRWSGGATYGDSVKGRFTISRDNAKNTVYLQMNSLQPEDTAVYYCAAVDRRDPYYPKYNYWGQGTQVTVSS ?
Solution: high polyreactivity

Problem: Would you mind doing QVQLVESRGGLVQAGGSLRLSCAASGRTFRSYVMGWYRQAPGKERELVAAITTSGGSTYYADSVKGRFTISRDTAKNTVYLQMNSLKPEETAVYYCAAEYYTYTGHYDSWYGDDYWGQGTQVTVSS as well?
Solution: high polyreactivity

Problem: Consider next the sequence QVQLVESGGGLVQAGGSLRLSCAASGRTFFSYAMGWYRQAPGKERELVAAISWSGGTTYYADSVKGRFTISRDNAKNTVYLQMNSLKPEDTAVYYCAAYVYQEGYRYYYWGQGTQVTVSS in the same way.
Solution: high polyreactivity

Problem: Do the same for QVQLVESGGGLVQAGGSLRLSCAASGSILYRYAMGWYRQAPGKERELVAAITRSGGSTYYADSVKGRFTISRDNAKNTVYLQMNSLKPEDTAVYYCARQRKVSAHSIEMDYWGQGTQVTVSS please
Solution: low polyreactivity

Problem: Same thing, different sequence: QVQLVESGGGLVQAGGSLRLSCAASGRIFLYYTMGWYRQATWKERELVAAITRSGGSTYYADSVKGRFTISRDNAKNTVYLQMNSLKPEDTAVYYCNRAYVRYVPMNYWGQGTQVTVSS
Solution: high polyreactivity

Problem: Then QVQLVESGGGLVQAGGSLRLSCAASGYIFSGYAMGWYRQAPGKERELVAAISSSGGRTYYADSVKGRFTISRDNAKNTVYLQMNSLKPEDTAVYYCATVPRKTPGNAELDYWGQGTQVTVSS ?
Solution: high polyreactivity

###

- Assay Comment: yeast display, Sf9 membrane polyspecificity reagent, FACS + sequencing; frameworks hold sequencing errors
Reported Property: polyreactivity (PSR sort gate)

QVQLVESGGGLVQAGGSLRLSCAASGSTFKYYVMGWYRQAPGKEREFVAAITLRGGRTYYADSVKGRFTISRDNAKNTVYLQMNSLKPEDTAVYYCNAAYYLGWAHGTGRVEYDYWGQGTQVTVSS
high polyreactivity
QVQLVESGGGLVQAGVSLRLSCVPPDLPSTLNVMGWYRQAPGKERELVAAITSSGGSTRYADCVKGRFTISRDNAKNTVYLQMNSLKPEDTAVYYCAASRDKYGNRVRPFDYWGQGTQVTVSS
low polyreactivity
QVQLVESGGGLVQAGGSLRLSCAAYGLIFGHYAMGWYRQEPGKERELVAAITTRGSSTYYADSVKGRFTISRDNAKNTVYLQMNSLKPEDTAVYYCNAKLVYGTTYKFDNWGQGTQVTVSS
high polyreactivity
QVQLVESGGGLVQAGGSLRLSCAASGNIFESYCMGWYRQAPGKERELVATINTSSGSTYYADSVKGRFTISRDTAKNTVYLQMNSLKPEDTAVYYCAAEWYPYPWGYGYWGQGTQVTVSS
low polyreactivity

Continue with the sequence presented below.
Problem: Would you mind telling me what polyreactivity (PSR sort gate) value was observed for QVQLVESGGGLVQAGGSLRLSCAASGSTLYSYAMGWYRQAPGKERELVAAIRRDSGRTYYADSVKGRFTISRDNEKNTVYLQMNSLKPEDTAVYYCAAAYRLGYHKYYYWGQGTQVTVSS ?
Solution: high polyreactivity

###

- Assay Comment: yeast display, Sf9 membrane polyspecificity reagent, FACS + sequencing; frameworks hold sequencing errors
Reported Property: polyreactivity (PSR sort gate)

Record excerpt, results attached:
QVHLVESGGVLVQAGGRHRISCAASGRTFIQNAMGWYRQAPGKERELVAAISWSGGSTYYADSVKGRFTISRDNAKNTVYLQMNSLKPADTAVSYCAAETYDYLFHTYEYWGQATQVTVSS
low polyreactivity
QVQLVESGGGIVQAGGSLRLSCAASGSSFWRNTMGWYRQAPGKERELVAGISSTGTSTYYADSVKGRFTISRDNAKNTVYLQMNSLKPEDTAVYYCAAAYRNRKYDYWGQGTQVTVSS
high polyreactivity
QVQLVESGGGLVQAGGSLRLSCAASGRTLYRYAMGWYRQAPGKERELVAAIRSGGRTNYSDSVKGRFTISRDNAKNTVYLQMNSLKPEDTAVYYCAARTLRYPSTYDYWGQGTQVTVSS
high polyreactivity
QVQLVESGGGLDQAGGSLRLSCAASGTIFTFYTMGWYRQAPGKERELVAAINWSGSRTYYADSVKGRFTISRDNAKNTVYLQMNSLKPEDTAVYYCAAEHWFPSAPWYYSDLHYYWGQGTQVTVSS
high polyreactivity
QVQLVESGGGLVQAGGSLRLSCAASGSIFTYYAMGWYRQAPGKERELVDAITWDDDGTYYADSVKGRFTISRDNAKNTVYLQMNSLKPEDTAVYYCAADDGDPYDYWGQGSQVTVSS
low polyreactivity
QVQLVESGGGIVQAGGSLRLSCAASGSIFSYNAMVWSRQAPGKQREFVAAIDGSDGSTYYADSVKGRFTISRDNAKNTVYLQMYSLKPEDTAVYSCAATDYDTYRSSWYDYWGQGTQVTVSS
low polyreactivity

Problem: What value of measured polyreactivity (PSR sort gate) is listed for QVQLVESGGGLVQAGGSLRLSCAASGSTLPYYAMGWYRQAPGKEWELVAAITSSGGDTYYADSVKGRFTISRDNAKNTVYLQMNSLKTEDTAVYYCAKSYSARSTVRKLFYFAYDYWGQGTQVTVSS ?
Solution: low polyreactivity

Problem: Next sequence up: QVQLVESGGGLVQAGGSLRLSCAASGITLGRYSMGLYRQAPGKVRELVAVISDSGGSTYYADSVKGRFTISRDNAKNTVYLQMNSLKPEYTAVYYCARRFDRYPRYYYWGQGTQVTVSS
Solution: high polyreactivity

Problem: Next: QVQLVESGGGLVQAGGSLRLSCAASGSIMYVYAMGWYRQAPGKERELVAVITSGGSTNYAESVKGRFTISRDNAKNTVFLQMNSLKPEDTAVYYCAADPYSVYGGDYWGQGTQVTVSS
Solution: low polyreactivity

###

- Assay Comment: yeast display, Sf9 membrane polyspecificity reagent, FACS + sequencing; frameworks hold sequencing errors
Reported Property: polyreactivity (PSR sort gate)

QVQLVESGGGLVQAGGSLRISCAASGRIFANYAMGWYRQAPGKEMELVAAITTNGGGTYYADSVKVRFTISRDNAKNTVYLQMKSLIPEDTAVYYCIAVKQRSSIFDYWGQGTQLTVSS
low polyreactivity
QVQLVESGGGLVQAGGSLRLSCAASGRTQYKYAMGWYRQAPGKERELVATISSGGRTKYADSVKGRFTISRDNAKNTVDLQMNSLKPEDTAVYYCAAQNRPRYYSGDYWGQGTQVTVSS
low polyreactivity

###

- Assay Comment: yeast display, Sf9 membrane polyspecificity reagent, FACS + sequencing; frameworks hold sequencing errors
Reported Property: polyreactivity (PSR sort gate)

Worked cases, polyreactivity (PSR sort gate) given:
QVQLVESVGGLLQAGGSLRLSCDASGSIFADYAMGWYRQAPGKERELVAVITSSGGSTNYADSVKGRFTISRDNAKNTVYLQMNSLKPEDTAVYYCNRRPYPSYDYWGQGTQVTVSS
low polyreactivity
QDQLVESGGGLVQAGGSLRLSCAASGFIFSQYAMGWYRHAPGKERELVAAISTSGGSTYYADSVKGRFTISRDNAKNTVYLQMNSLKPEDTAVYYCAAARITRGRRYDYWGQGTQVTVSS
high polyreactivity
QVQLVESGGGLVQAGGSLRLSCAASGFTFVPYDMGWYRQAPGKERELVAAITDSSGSTHYADSVKGRFTFSRDNAKNTVYLQMNSLKPEDTAVYYCAADDSSRTTYDYWGQGTQVTVSS
low polyreactivity
QVQIVHSGGGLVQAGGSLRLSCAASGRTIGGNAMGWYRQAPGKEWELVAAISYSDGSTYYADSVKGRFTISRDNAKNTVYLQMNSLKPEDTAVYYCAADRYAILLYAEDYWGQGTQVTVSS
low polyreactivity

Problem: May I ask what polyreactivity (PSR sort gate) has been recorded for QVQLVESGGGLVQAGGSLRLSCAASGYIFKKYAMGWYRQAPGKEREFVAAISISGGRTYYADSVKGRFTISRDNAKNTVYLQMNSLKPEDTAVYYCNKVHYGRRHSYSGAIYGEDYWGQGTQVTVSS ?
Solution: high polyreactivity

Problem: Now try QVQLVESGGGLVQAGGSLRLSCAASGSIFYYYVMGWYRQAPGKERELVAAIRSSGTSTYYADSVKGRFTISRDNAKNTVYLQMNSLKPEDTAVYYCNRARSSSRYDYWGQGTQVTVSS .
Solution: low polyreactivity

Problem: What do you have for QVQLVESGGGLVQAGGSLRLSCAASGFTFEENAMGWYRQAPGINYSGASTYYADSVKGRFTISRDKAKNTVYLQMNSLKPDDTAVYYCAADVVAQMNYWGQGTQVTVSS ?
Solution: low polyreactivity

Problem: Can you check QVQLVESGGGLVQAGGSLRLSCAASGTIFRRSAMGWDRQAPGKERELVATITSTDSTNYADSVKGRFTISRDNAKNTVYLQMNSLKPEDTAVYYCAKRPYHYRRNSEYYYWGQGTQVTVSS next?
Solution: low polyreactivity

Problem: Moving on to the next sequence: QVQLVESGGGLVQAGGSLRLSCAASGRTFKVYAMGWYRQAPGKERELVASINRGSSTYADSVKGRFTISRDNAKNTVYLQMNSLKPEDTAVYYCAARWWRQSRYYYWGQGTQVTVSS
Solution: high polyreactivity

Problem: Same again, this time with QVQLVESGGGLVQAGGRLRLSCAASGRIFGWIAMGWSRQAPGKDRELVAAISADGNTYSADSVKGRFTISRDNAKNTVYVQKNSLKPEDTAVSYCAAESWSADFSWYDYWGQGTQVTVSS
Solution: high polyreactivity

Problem: Also, QVQLVESGGGLVQAGGSLRLSCAASGFILRAYAIGWYRQAPGKERELVAAITSATSTNYADSVKGRFTISRDNAKNTVYLQMNSLKPEDTAVYYCAADGGGGEFSYDSWGQGTQVTVSS please.
Solution: low polyreactivity
